Tested on: A549 (lung cancer) cells
Assay Overview: MTT cytotoxicity assay, A549
Type: cell-based
Condition Summary: Homo sapiens, A549, 72 h, read-out: Cytotoxicity, mean IC50
Metric Name: pIC50
Give bare numbers, as −log10 of the molar value.

Name the recorded pIC50 for COc1ccc2cc1Oc1ccc(cc1)C[C@H]1c3cc(c(OC)cc3CCN1C)Oc1c(OC)c(OC)c(OC)c3c1[C@H](C2)N(C)CC3 [Hernandezine] .
5.12

---

Assay Overview: MTT cytotoxicity assay, LO2 normal hepatocytes
Type: cell-based, human
Condition Summary: human
Metric Name: IC50 at 3 days (µM)
Answers are plain numbers, in µM.

Name the recorded IC50 at 3 days for COc1ccc2cc1Oc1ccc(cc1)C[C@H]1c3cc(c(OC)cc3CCN1C)Oc1c(OC)c(OC)c(OC)c3c1[C@H](C2)N(C)CC3 [Hernandezine] .
65.1
